src = BigSolDB 2.1

Condition details: in n-butanol, 303.15 K
Observation type: solubility (mole fraction)
Format: numeric value only, no unit, no commentary.

Value of measured solubility (mole fraction) for the entry O=C(c1ccccc1)c1ccc(Cl)cc1 : 0.0478

---

Condition details: in methanol, 308.15 K
Observation type: solubility (mole fraction)
Respond numerically, and do not add a unit to the figure.

Lab note: O=C(c1ccccc1)c1ccc(Cl)cc1 gave solubility (mole fraction) of 0.0203

---

Condition details: in n-butanol, 283.15 K
Observation type: solubility (mole fraction)
Answer with a bare number; do not write a unit.

For this compound ( O=C(c1ccccc1)c1ccc(Cl)cc1 ), measured solubility (mole fraction) is 0.0304

---

Condition details: in n-butyl acetate, 323.15 K
Observation type: solubility (mole fraction)
Please reply with the value in numeric form only.

get_value(item= O=C(c1ccccc1)c1ccc(Cl)cc1 , readout=solubility (mole fraction)) returns 0.454

---

Condition details: in acetonitrile, 288.15 K
Observation type: solubility (mole fraction)
Output spec: single numeric token, no unit.

// recorded solubility (mole fraction) for O=C(c1ccccc1)c1ccc(Cl)cc1 : 0.0352

---

Condition details: in n-butyl acetate, 308.15 K
Observation type: solubility (mole fraction)
Kindly provide the number alone.

In plain terms, O=C(c1ccccc1)c1ccc(Cl)cc1 has a documented solubility (mole fraction) of 0.285

---

Condition details: in acetone, 323.15 K
Observation type: solubility (mole fraction)

// O=C(c1ccccc1)c1ccc(Cl)cc1 : solubility (mole fraction) value = 0.615

---

Condition details: in methyl acetate, 313.15 K
Observation type: solubility (mole fraction)
The reply should be a number, written without any unit.

Summary for this compound, O=C(c1ccccc1)c1ccc(Cl)cc1 : solubility (mole fraction) is 0.354

---

Condition details: in acetonitrile, 283.15 K
Observation type: solubility (mole fraction)

Reported solubility (mole fraction) for O=C(c1ccccc1)c1ccc(Cl)cc1 was 0.0258

---

Condition details: in isopropanol, 318.15 K
Observation type: solubility (mole fraction)

Field solubility (mole fraction) (entry O=C(c1ccccc1)c1ccc(Cl)cc1 ) reads 0.0617

---

Condition details: in n-butyl acetate, 318.15 K
Observation type: solubility (mole fraction)
Returns: the value as a bare number; no unit string appended.

The reported solubility (mole fraction) of the molecule O=C(c1ccccc1)c1ccc(Cl)cc1 was 0.383

---

Condition details: in ethanol, 318.15 K
Observation type: solubility (mole fraction)
Respond numerically, and do not add a unit to the figure.

Lab note: measured solubility (mole fraction) of O=C(c1ccccc1)c1ccc(Cl)cc1 was 0.06

---

Condition details: in n-butyl acetate, 303.15 K
Observation type: solubility (mole fraction)
Number, no unit, nothing else.

Value of solubility (mole fraction) reported for the molecule O=C(c1ccccc1)c1ccc(Cl)cc1 is 0.248

---

Condition details: in isobutanol, 323.15 K
Observation type: solubility (mole fraction)

Summary for this compound, O=C(c1ccccc1)c1ccc(Cl)cc1 : solubility (mole fraction) is 0.123

---

Condition details: in isobutanol, 318.15 K
Observation type: solubility (mole fraction)

Lab note: measured solubility (mole fraction) of O=C(c1ccccc1)c1ccc(Cl)cc1 was 0.0821

---

Condition details: in isopropanol, 308.15 K
Observation type: solubility (mole fraction)
# respond with the number and nothing more

Entry O=C(c1ccccc1)c1ccc(Cl)cc1 ; solubility (mole fraction) = 0.0288

---

Condition details: in isobutanol, 278.15 K
Observation type: solubility (mole fraction)
When you answer, write just the number.

# solubility (mole fraction) (molecule: O=C(c1ccccc1)c1ccc(Cl)cc1 ) is 0.0102

---

Condition details: in isobutanol, 298.15 K
Observation type: solubility (mole fraction)
Please reply with the number alone, leaving off any unit.

What the record says about O=C(c1ccccc1)c1ccc(Cl)cc1 : solubility (mole fraction) is 0.0225

---

Condition details: in acetonitrile, 278.15 K
Observation type: solubility (mole fraction)
Write the number on its own, no unit after it.

The recorded solubility (mole fraction) for O=C(c1ccccc1)c1ccc(Cl)cc1 is 0.0216

---

Condition details: in isobutanol, 293.15 K
Observation type: solubility (mole fraction)
No unit in the answer, please; the number alone is enough.

# compound O=C(c1ccccc1)c1ccc(Cl)cc1 ; its solubility (mole fraction) = 0.0173

---

Condition details: in isobutanol, 303.15 K
Observation type: solubility (mole fraction)
Could you keep your reply to the number by itself?

The reported solubility (mole fraction) of the compound O=C(c1ccccc1)c1ccc(Cl)cc1 was 0.0305

---

Condition details: in acetone, 303.15 K
Observation type: solubility (mole fraction)

Just so you know, measured solubility (mole fraction) for O=C(c1ccccc1)c1ccc(Cl)cc1 came out at 0.224

---

Condition details: in acetone, 313.15 K
Observation type: solubility (mole fraction)
Please reply with the number alone, leaving off any unit.

O=C(c1ccccc1)c1ccc(Cl)cc1 has a reported solubility (mole fraction) of 0.342

---

Condition details: in isopropanol, 283.15 K
Observation type: solubility (mole fraction)
// keep it numeric: no unit symbol after the value

The reported value for O=C(c1ccccc1)c1ccc(Cl)cc1 in terms of solubility (mole fraction) is 0.00886

---

Condition details: in n-butyl acetate, 278.15 K
Observation type: solubility (mole fraction)
Could you respond with only the numeric value?

Entry under test: O=C(c1ccccc1)c1ccc(Cl)cc1 . Its solubility (mole fraction) was 0.133

---

Condition details: in ethanol, 293.15 K
Observation type: solubility (mole fraction)
Give your answer as a number; write no unit.

According to the records, this molecule O=C(c1ccccc1)c1ccc(Cl)cc1 displays solubility (mole fraction) of 0.0151

---

Condition details: in isopropanol, 298.15 K
Observation type: solubility (mole fraction)
# output: bare number, no unit

So, O=C(c1ccccc1)c1ccc(Cl)cc1 ? Its solubility (mole fraction) was 0.0187
